tested on: Clostridium diaphorase; assay: Fluorescent NADH detection assay, Clostridium diaphorase; format: biochemical; details: 10 μM NADH; 60 min; 1 u/ml Clostridium diaphorase; substrate 920 μM
I'd appreciate it if you could supply FLUs values for the items below.
Just the number plus its unit, please.

Use the examples below as a reference point.
CC1=CC(=O)C(C)=C(C(C)(C)CC(=O)N(C)CCN(C)C(=O)Oc2ccc3c(c2)Oc2cc(O)ccc2C32OC(=O)c3ccccc32)C1=O (stereo not shown): 125352 FLUs
CC1=C(C)C(=O)C(C(C)(C)CC(=O)N(C)CCN(C)C(=O)Oc2ccc3c(c2)Oc2cc(O)ccc2C32OC(=O)c3ccccc32)=C(C)C1=O (stereo not shown): 43362 FLUs
CC1=C(C)C(=O)C(C(C)(C)CC(=O)N(C)CCN(C)C(=O)Oc2ccc3c(c2)Oc2cc(OC(=O)N(C)CCN(C)C(=O)CC(C)(C)C4=C(C)C(=O)C(C)=C(C)C4=O)ccc2C32OC(=O)c3ccccc32)=C(C)C1=O: 2570 FLUs

// FLUs lookup, key: `CC1=CC(=O)C(C)=C(C(C)(C)CC(=O)N(C)CCN(C)C(=O)Oc2ccc3c(c2)Oc2cc(OC(=O)N(C)CCN(C)C(=O)CC(C)(C)C4=C(C)C(=O)C=C(C)C4=O)ccc2C32OC(=O)c3ccccc32)C1=O`
2517 FLUs

---

Record form. Attribute: Fluorescence time course, Clostridium. Fill in for each entry.
system: Clostridium diaphorase; assay: Fluorescent NADH detection assay, Clostridium diaphorase; assay type: biochemical; conditions: 40 min; 10 uM NADH

CC1=C(C)C(=O)C(C(C)(C)CC(=O)N(C)CCN(C)C(=O)Oc2ccc3c(c2)Oc2cc(O)ccc2C32OC(=O)c3ccccc32)=C(C)C1=O (stereo not shown): 42268 FLUs

// for each molecule below, give its Fluorescence time course, Clostridium
1. CC1=CC(=O)C(C)=C(C(C)(C)CC(=O)N(C)CCN(C)C(=O)Oc2ccc3c(c2)Oc2cc(O)ccc2C32OC(=O)c3ccccc32)C1=O (stereo not shown)
2. CC1=CC(=O)C(C)=C(C(C)(C)CC(=O)N(C)CCN(C)C(=O)Oc2ccc3c(c2)Oc2cc(OC(=O)N(C)CCN(C)C(=O)CC(C)(C)C4=C(C)C(=O)C=C(C)C4=O)ccc2C32OC(=O)c3ccccc32)C1=O
3. CC1=C(C)C(=O)C(C(C)(C)CC(=O)N(C)CCN(C)C(=O)Oc2ccc3c(c2)Oc2cc(OC(=O)N(C)CCN(C)C(=O)CC(C)(C)C4=C(C)C(=O)C(C)=C(C)C4=O)ccc2C32OC(=O)c3ccccc32)=C(C)C1=O

120688 FLUs
3329 FLUs
2515 FLUs

---

Give measured Fluorescence time course, Rat for each item. Keep answers brief.
target: rat diaphorase (Rattus norvegicus, UniProt P05982); construct: purchased Sigma; format: biochemical; conditions: 90 min; 10 uM NADH
Sequence (P05982 2-274 limits assumed): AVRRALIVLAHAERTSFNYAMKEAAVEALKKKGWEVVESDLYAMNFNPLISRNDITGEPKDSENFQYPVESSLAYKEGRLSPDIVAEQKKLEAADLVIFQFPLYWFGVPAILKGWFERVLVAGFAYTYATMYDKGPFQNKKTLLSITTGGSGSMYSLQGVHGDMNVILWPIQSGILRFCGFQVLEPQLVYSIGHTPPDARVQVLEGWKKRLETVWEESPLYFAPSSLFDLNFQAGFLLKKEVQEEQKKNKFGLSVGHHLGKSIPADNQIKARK
Numeric answer plus unit only.

// below: answered molecules
CC1=CC(=O)C(C)=C(C(C)(C)CC(=O)N(C)CCN(C)C(=O)Oc2ccc3c(c2)Oc2cc(OC(=O)N(C)CCN(C)C(=O)CC(C)(C)C4=C(C)C(=O)C=C(C)C4=O)ccc2C32OC(=O)c3ccccc32)C1=O: 12101 FLUs
CC1=C(C)C(=O)C(C(C)(C)CC(=O)N(C)CCN(C)C(=O)Oc2ccc3c(c2)Oc2cc(OC(=O)N(C)CCN(C)C(=O)CC(C)(C)C4=C(C)C(=O)C(C)=C(C)C4=O)ccc2C32OC(=O)c3ccccc32)=C(C)C1=O: 9915 FLUs
CC1=CC(=O)C(C)=C(C(C)(C)CC(=O)N(C)CCN(C)C(=O)Oc2ccc3c(c2)Oc2cc(O)ccc2C32OC(=O)c3ccccc32)C1=O (stereo not shown): 178423 FLUs

What measured Fluorescence time course, Rat is associated with CC1=C(C)C(=O)C(C(C)(C)CC(=O)N(C)CCN(C)C(=O)Oc2ccc3c(c2)Oc2cc(O)ccc2C32OC(=O)c3ccccc32)=C(C)C1=O (stereo not shown) on rat diaphorase (Rattus norvegicus, UniProt P05982)?
182263 FLUs
